# EXPERIMENT_DESCRIPTION: coupled detection enzyme interference, dose response, artefact control for MgcRacGAP inhibitor project, biochemical, coupled enzyme counter-screen (AID 624351);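 also: signal is the ADP detection kit reading of free GDP without any GAP enzyme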
# RUN_PARAMETERS: ADP Hunter coupled enzyme counter-screen, fluorescence, no MgcRacGAP; series mostly up to 80 µM
Among all 2,400 compounds or so, about 1,400 (58%) were called active.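 The calls were made as follows: active = inhibition of 30% or more at any tested dose; inconclusive = primary hits over the limit that were never retested; inactive = the rest.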 So high a share suggests a set chosen from earlier hits. The list shows a part of the results.
Classes used: active, inactive

| MOLECULE | GROUP_LABEL |
| --- | --- |
| CCN(Cc1ccccc1)C(c1ccc(C)cc1)c1nnnn1C(C)(C)CC (stereo unspecified) | inactive |
| COc1cc(/C=N/n2c(C)nc3ccccc3c2=O)ccc1O | active |
| COc1ccc(NS(=O)(=O)c2cccc(C(=O)NN=Cc3ccc(O)c(OC)c3)c2)cc1 | inactive |
| O=c1c2cc(F)ccc2sn1-c1ccccc1Cl | inactive |
| COc1cc(C2NC(=O)C(C#N)=C(S)N2c2ccc(C)cc2)ccc1OC(C)C (stereo unspecified) | inactive |
| Cc1csc(=O)n1CC(=O)OC(C)C(=O)Nc1ccc(N(C)C)cc1 (stereo unspecified) | active |
| N#CC1=C(S)N(c2ccccc2)C(c2ccc(-c3ccccc3Cl)o2)NC1=O (stereo unspecified) | inactive |
| O=C(O)c1ccc2c(c1)C(=O)/C(=C\c1ccco1)C2=O | inactive |
| CC1Cc2ccccc2N1C(=O)CNCCCN(C)C (stereo unspecified) | inactive |
| O=C(Cc1cccs1)N/N=C\c1ccc(O)cc1 | active |
| C[n+]1c(-c2ccc(C=NNC(=O)c3ccc(C(=O)NN=Cc4ccc(-c5cn6ccccc6[n+]5C)cc4)cc3)cc2)cn2ccccc21 | inactive |
| CN(C)c1ccc(/C=N/O)cc1 | active |
| COc1cc(/C=N/NC(=O)c2ccc(=O)[nH]n2)ccc1O | active |
| COc1cc(-c2nc3ccc(C)cn3c2Nc2ccc3c(c2)OCCO3)ccc1O | active |
| Cc1[nH]nc(-c2ccc(O)c(C)c2O)c1-c1cnn(-c2ccccc2)c1 | active |
| COc1cc(/C=N/NC(=O)c2ccccc2)ccc1O | active |
| Cc1ccc(CCC(=O)Nc2ccc(N(C)C)cc2)o1 | active |
| CCC(C)n1c(=S)[nH]c2c(sc3ccc([N+](=O)[O-])cc32)c1=O (stereo unspecified) | active |
| COc1ccc(C2NC(=O)C(C#N)=C(S)N2c2cccc(C)c2)cc1OC (stereo unspecified) | inactive |
| COc1cc(-c2nc3cnccn3c2Nc2ccc(C)cc2)ccc1O | active |
| COc1ccc(CN(C)CC(=O)Nc2ccc(Cl)cc2C(F)(F)F)c(OC)c1 | inactive |
| CCN(CC)c1ccc(/C=N/NC(=O)c2ccoc2C)cc1 | inactive |
| CCOc1cc(/C=N/NC(=O)C2CCCC2)ccc1O | active |
| O=C(O)c1ccc(-c2ccc(/C=c3/sc4nc5ccccc5n4c3=O)o2)cc1Cl | inactive |
| C/C=C/c1ccc(OCCCCN(C)Cc2ccccc2)c(OC)c1 | inactive |
| CSc1nc(/C=C2\C=Nc3ccccc32)c(O)n1C | active |
| COc1cc(/C=N/Nc2ccc(C(=O)O)cc2)ccc1O | active |
| CC(C(=O)N(C)Cc1ccccc1)N1CCN(C/C=C/c2ccccc2)CC1 (stereo unspecified) | inactive |
| COc1cc(/C=C/C(=O)OCC(=O)NC(=O)NC(C)(C)C)ccc1O | active |
| CCCCN(C)C(=O)C1CCN(Cc2ccc(OCc3ccccc3)cc2)CC1 | inactive |
| COc1cc(/C=N/NC(=O)C(C)n2nnc3ccccc32)ccc1O (stereo unspecified) | active |
| O=c1ccn(-c2ccccc2)[nH]1 | active |
| Cn1c(-c2cccc([N+](=O)[O-])c2)cnc1NCc1cccc([N+](=O)[O-])c1 | inactive |
| CCCc1nc2ccccc2c(=O)n1/N=C/c1ccc(O)c(O)c1 | active |
| CN1CCc2c1nc1ccccc1c2NC(=O)CN1CCCC1 | inactive |
| c1ccc(Nc2cc(Nc3ccccc3)[nH]n2)cc1 | active |
| CCOc1cc(/C=N/NC(=O)c2ccc(NC(=O)C3CC3)cc2)ccc1O | active |
| CCN(CC)c1ccc(/C=N/O)cc1 | active |
| Cc1ccc(/C=N/n2c(-c3cccnc3)n[nH]c2=S)s1 | active |
| O=C(CNCC1CCCO1)Nc1ccc(N2CCCCCC2)cc1 (stereo unspecified) | inactive |
| COc1ccc(/C=N/NC(=O)c2cc[n+]([O-])cc2)cc1O | active |
| CCN(CC)CC(C)(C)C(=O)/C=C/c1ccc(/C=C/C(=O)C(C)(C)CN(CC)CC)cc1 | inactive |
| COc1ccc(/C=N\NC(=O)c2ccc(=O)[nH]n2)cc1O | active |
| CN(C)/C=C/c1oc2ccc(O)cc2c1[N+](=O)[O-] | active |
| COc1cc(/C=N/NC(=O)c2cc3ccccc3[nH]2)ccc1O | active |
| O=C(O)CCN1C(=O)/C(=C/c2ccc(-c3nc4ccccc4s3)o2)SC1=S | inactive |

Data provenance is PubChem BioAssay AID624351.
